- Study target: BSA (UniProt P02769)
- Sequence (P02769 25-607 limits assumed): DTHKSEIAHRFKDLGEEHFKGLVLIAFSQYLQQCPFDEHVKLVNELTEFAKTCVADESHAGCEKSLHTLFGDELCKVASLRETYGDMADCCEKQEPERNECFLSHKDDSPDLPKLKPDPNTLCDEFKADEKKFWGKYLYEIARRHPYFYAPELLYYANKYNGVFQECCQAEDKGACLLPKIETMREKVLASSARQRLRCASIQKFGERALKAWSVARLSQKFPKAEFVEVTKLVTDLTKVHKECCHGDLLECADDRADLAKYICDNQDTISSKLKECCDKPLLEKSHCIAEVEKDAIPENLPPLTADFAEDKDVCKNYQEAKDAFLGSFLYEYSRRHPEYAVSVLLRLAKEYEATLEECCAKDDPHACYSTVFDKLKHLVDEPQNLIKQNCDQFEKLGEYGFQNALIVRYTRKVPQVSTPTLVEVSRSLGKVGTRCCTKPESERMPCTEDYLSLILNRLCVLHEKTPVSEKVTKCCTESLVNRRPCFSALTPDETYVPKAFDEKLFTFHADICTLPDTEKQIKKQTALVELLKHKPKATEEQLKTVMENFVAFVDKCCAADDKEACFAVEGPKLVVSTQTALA
- Assay method text: scFv ELISA
Parameter measured: OD450 (OD450)
Give a bare numeral; the unit OD450 is implied.

Answered cases to consult:
>>> value("PcOxP_DB04_C11 (scFv, V domains shown, scFv in periplasmic extract) VH: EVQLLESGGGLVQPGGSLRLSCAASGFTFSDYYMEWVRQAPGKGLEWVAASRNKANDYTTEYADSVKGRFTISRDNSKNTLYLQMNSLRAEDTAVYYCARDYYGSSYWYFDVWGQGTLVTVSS VL: DIVMTQSPDSLAVSLGERATINCTASESLYSSKHKVHYLAWYQQKPGQPPKLLIYGASHRQIGVPDRFSGSGSGTDFTLTISSLQAEDVAVYYCAQFYSYPLTFGGGTKVEIK")
0.07
>>> value("PcOxP_DB01_D09 (scFv, V domains shown, scFv in periplasmic extract) VH: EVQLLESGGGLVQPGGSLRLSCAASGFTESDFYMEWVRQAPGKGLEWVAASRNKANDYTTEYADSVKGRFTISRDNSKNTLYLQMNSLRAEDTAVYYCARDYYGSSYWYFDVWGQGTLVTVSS VL: DIQMTQSPSSLSASVGDRVTITCTASESLYSAKHKVHYLAWYQQKPGKAPKLLIYGSSNRYIGVPSRFSGSGSGTDFTLTISSLQPEDFATYYCAQFYDYPLTFGGGTKVEIK")
0.07
>>> value("PcOxP_DB04_B07 (scFv, V domains shown, scFv in periplasmic extract) VH: EVQLLESGGGLVQPGGSLRLSCAASGPTFSDFYMEWVRQAPGKGLEWVAASRNKANGYTTEYADSVKGRFTISRDNSKNTLYLQMNSLRAEDTAVYYCARDYYGSSYWYFDVWGQGTLVTVSS VL: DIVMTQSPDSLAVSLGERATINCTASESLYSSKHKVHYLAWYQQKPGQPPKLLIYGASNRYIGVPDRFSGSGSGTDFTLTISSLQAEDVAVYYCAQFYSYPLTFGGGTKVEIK")
0.09
>>> value("PcOxP_DB02_A09 (scFv, V domains shown, scFv in periplasmic extract) VH: EVQLLESGGGLVQPGGSLRLSCAASGFTFSDTYMEWVRQAPGKGLEWVAASRNKANDYTTEYADSVKGRFTISRDNSKNTLYLQMNSLRAEDTAVYYCARDYYGSSYWYFDVWGQGTLVTVSS VL: DIQMTQSPSSLSASVGDRVTITCTASESLYSSKHKVHYLAWYQQKPGKAPKLLIYGASNRQSGVPSRFSGSGSGTDFTLTISSLQPEDFATYYCAQFYWYPLTFGGGTKVEIK")
0.11
>>> value("PcOxP_DB01_B12 (scFv, V domains shown, scFv in periplasmic extract) VH: EVQLLESGGGLVQPGGSLRLSCAASGFTFSSYYMEWVRQAPGKGLEWVAASRNKGNSYTTEYADSVKGRFTISRDNSKNTLYLQMNSLRAEDTAVYYCARDYYGSSYWYFDVWGQGTLVTVSS VL: DIVMTQSPDSLAVSLGERATINCTASESLYSSKHKVHYLAWYQQKPGQPPKLLIYGASNRYIGVPDRFSGSGSGTDFTLTISSLQAEDVAVYYCGQFYSYPLTFGGGTKVEIK")
0.09
>>> value("PcOxP_DB01_G01 (scFv, V domains shown, scFv in periplasmic extract) VH: EVQLLESGGGLVQPGGSLRLSCAASGFTGSDFYMEWVRQAPGKGLEWVAASRNKGNSYTTEYADSVKGRFTISRDNSKNTLYLQMNSLRAEDTAVYYCARDYYGSSYWYFDVWGQGTLVTVSS VL: DIQMTQSPSSLSASVGDRVTITCTASESLYGSKHKVHYLAWYQQKPGKAPKLLIYGASNRYSGVPSRFSGSGSGTDFTLTISSLQPEDFATYYCAQFYSYPLTFGGGTKVEIK")
0.09

Summary for this binder, PcOxP_DB02_G02 (scFv, V domains shown, scFv in periplasmic extract) VH: EVQLLESGGGLVQPGGSLRLSCAASGFGFSDFYMEWVRQAPGKGLEWVAASRNKANDYTTEYADSVKGRFTISRDNSKNTLYLQMNSLRAEDTAVYYCARDYYGSSYWYFDVWGQGTLVTVSS VL: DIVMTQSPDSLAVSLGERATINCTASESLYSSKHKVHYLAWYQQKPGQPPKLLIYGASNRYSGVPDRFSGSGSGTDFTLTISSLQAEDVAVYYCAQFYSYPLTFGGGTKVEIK : OD450 is 0.06

Summary for this binder, PcOxP_DB02_G04 (scFv, V domains shown, scFv in periplasmic extract) VH: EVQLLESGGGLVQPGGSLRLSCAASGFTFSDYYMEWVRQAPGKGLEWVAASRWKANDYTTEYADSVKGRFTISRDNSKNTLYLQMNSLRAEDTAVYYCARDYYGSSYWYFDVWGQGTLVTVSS VL: DIVMTQSPDSLAVSLGERATINCKASQSVLYSKNKKHYLAWYQQKPGQPPKLLIYGASNRQIGVPDRFSGSGSGTDFTLTISSLQAEDVAVYYCAQFYVYPLTFGGGTKVEIK : OD450 is 0.11

Summary for this binder, PcOxP_DB01_C05 (scFv, V domains shown, scFv in periplasmic extract) VH: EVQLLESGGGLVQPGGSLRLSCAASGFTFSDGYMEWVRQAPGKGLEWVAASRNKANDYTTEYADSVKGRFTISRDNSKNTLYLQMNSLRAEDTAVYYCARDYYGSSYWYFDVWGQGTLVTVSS VL: DIQMTQSPSSLSASVGDRVTITCTASESLYSSKHKVHYLAWYQQKPGKAPKLLIYGSSNRYIGVPSRFSGSGSGTDFTLTISSLQPEDFATYYCAQFYAYPLTFGGGTKVEIK : OD450 is 0.11

Summary for this binder, PcOxP_DB01_D07 (scFv, V domains shown, scFv in periplasmic extract) VH: EVQLLESGGGLVQPGGSLRLSCAASGFTFSDYYMEWVRQAPGKGLEWVAASRNKANDYTTEYADSVKGRFTISRDNSKNTLYLQMNSLRAEDTAVYYCARDYYGDSYWYFDVWGQGTLVTVSS VL: DIVMTQSPDSLAVSLGERATINCKASQSVLSSKNNVNYLAWYQQKPGQPPKLLIYGASNRYSGVPDRFSGSGSGTDFTLTISSLQAEDVAVYYCAQFYSYPLTFGGGTKVEIK : OD450 is 0.05
